- Assay system: UniProt P41594
- Sequence (P41594 21-1180 isoform P41594-2 limits assumed): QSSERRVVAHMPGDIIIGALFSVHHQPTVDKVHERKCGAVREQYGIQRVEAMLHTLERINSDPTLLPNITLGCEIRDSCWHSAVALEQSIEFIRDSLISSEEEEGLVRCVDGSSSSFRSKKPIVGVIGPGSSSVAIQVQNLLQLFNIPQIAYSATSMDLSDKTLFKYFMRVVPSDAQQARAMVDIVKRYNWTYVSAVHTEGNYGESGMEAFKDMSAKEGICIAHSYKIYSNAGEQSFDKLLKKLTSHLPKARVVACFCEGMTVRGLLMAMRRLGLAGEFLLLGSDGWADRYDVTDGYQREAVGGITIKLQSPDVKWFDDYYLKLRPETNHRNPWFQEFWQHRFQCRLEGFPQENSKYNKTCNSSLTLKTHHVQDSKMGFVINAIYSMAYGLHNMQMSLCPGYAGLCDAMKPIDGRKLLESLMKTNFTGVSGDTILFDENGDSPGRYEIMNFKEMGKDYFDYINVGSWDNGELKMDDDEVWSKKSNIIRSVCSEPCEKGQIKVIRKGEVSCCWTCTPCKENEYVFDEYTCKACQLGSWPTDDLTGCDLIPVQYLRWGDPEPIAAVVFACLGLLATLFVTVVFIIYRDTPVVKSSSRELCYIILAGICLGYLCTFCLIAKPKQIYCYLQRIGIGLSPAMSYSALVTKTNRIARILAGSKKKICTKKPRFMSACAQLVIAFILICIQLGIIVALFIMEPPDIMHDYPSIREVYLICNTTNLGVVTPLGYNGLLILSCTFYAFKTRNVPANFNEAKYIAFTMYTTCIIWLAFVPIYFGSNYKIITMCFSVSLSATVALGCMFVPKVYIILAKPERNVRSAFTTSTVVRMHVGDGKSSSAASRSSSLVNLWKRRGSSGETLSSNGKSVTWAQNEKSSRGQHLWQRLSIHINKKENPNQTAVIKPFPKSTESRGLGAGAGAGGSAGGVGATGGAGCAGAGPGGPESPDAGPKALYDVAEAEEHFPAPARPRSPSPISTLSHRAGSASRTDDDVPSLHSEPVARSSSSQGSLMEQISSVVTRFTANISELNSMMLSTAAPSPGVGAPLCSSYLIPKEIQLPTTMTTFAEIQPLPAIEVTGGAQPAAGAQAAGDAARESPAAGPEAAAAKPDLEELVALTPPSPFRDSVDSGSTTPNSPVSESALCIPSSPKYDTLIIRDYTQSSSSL
- Protocol text: inhibition of quinqualate-induced inositol phosphate turnover in hmGluR5 expressing cells
- Condition description: read-out: IC50 concentration, inhibition of quinqualate-induced inositol phosphate turnover
Measured quantity: pIC50
# pIC50 = -log10(concentration in molar units)

Qu. Recall and state the measured pIC50 for O=C(c1cc2ccccc2o1)N1CCC(O)(C#Cc2cccc(Cl)c2)CC1 .
Ans. 6.54

* * *

Measured quantity: melting point

Qu. Report measured melting point; entry is Cc1ccccc1N1CCC(O)(C#Cc2cccc(Cl)c2)CC1 [Example 1.137]
Ans. 128 to 130 °C

Qu. Input Cc1ncccc1N1CCC(O)(C#Cc2cccc(Cl)c2)CC1 [Example 1.164] , output reported melting point.
Ans. 98 to 102 °C

Qu. Please report melting point for the following molecule: O=C(C1Oc2ccccc2O1)N1CCC(O)(C#Cc2cccc(Cl)c2)C1 (centres unmarked) [Example 3.11]
Ans. 153 to 155 °C

Qu. Look up and report measured melting point for this entry: OC1(C#Cc2cccc(Cl)c2)CCN(c2cccc3nccnc23)CC1 [Example 1.139]
Ans. 68 to 70 °C

Qu. Answer with reported melting point of OC1(C#Cc2cccc(Cl)c2)CCN(c2cncnc2)CC1 [Example 1.162]
Ans. 173 to 177 °C

Qu. Given OC1(C#Cc2cccc(Cl)c2)CCN(c2nc3ccccc3s2)CC1 [Example 1.144] , respond with its melting point.
Ans. 154 to 157 °C

Qu. For the molecule O=C(c1ccoc1)N1CCC(O)(C#Cc2ccc(F)cc2F)CC1 [Example 1.35] , give its measured melting point value.
Ans. 80 to 94 °C

Qu. Read off the recorded melting point for O=C(c1ccoc1)N1CCC(O)(C#Cc2ccc(Cl)cc2)CC1 [Example 1.34]
Ans. 124 to 134 °C

Qu. Identify the reported melting point for the following entry. O=C(c1ncc[nH]1)N1CCC(O)(C#Cc2cccc(Cl)c2)CC1 [Example 1.4]
Ans. 75 to 80 °C

Qu. Indicate its recorded melting point; the molecule in question is CC(C)c1ccc(N2CCC(O)(C#Cc3cccc(Cl)c3)CC2)cc1 [Example 1.128]
Ans. 114 to 119 °C

Qu. Give melting point for Cc1ccc(C)c(C#CC2(O)CCN(C(=O)c3ccoc3)CC2)c1 [Example 1.37]
Ans. 110 to 114 °C

Qu. Kindly indicate its recorded melting point. Item: OC1(C#Cc2cccc(Cl)c2)CCN(c2cccnc2)CC1 [Example 1.138]
Ans. 124 to 128 °C

Qu. Return melting point for the following molecule: OC1(C#Cc2cccc(Cl)c2)CCN(c2ccnc(Cl)c2)CC1 [Example 1.151]
Ans. 139 to 142 °C

Qu. Give reported melting point value for Cc1cccnc1N1CCC(O)(C#Cc2cccc(Cl)c2)CC1 [Example 1.148]
Ans. 134 to 138 °C

Qu. State its melting point: O=C(c1ccncc1)N1CCC(O)(C#Cc2cccc(Cl)c2)CC1 [Example 1.52]
Ans. 171 to 173 °C

Qu. Provide melting point value for the following molecule: CN1CCC(C(=O)N2CCC(O)(C#Cc3cccc(Cl)c3)CC2)CC1 [Example 1.2]
Ans. 134 to 136 °C

Qu. Return reported melting point. Input molecule: O=C(c1ccoc1)N1CCC(O)(C#Cc2cccc(F)c2)CC1 [Example 1.31]
Ans. 67 to 81 °C

Qu. Specify reported melting point for the molecule shown: O=C(c1ccno1)N1CCC(O)(C#Cc2cccc(Cl)c2)CC1 [Example 1.3]
Ans. 132 to 135 °C

Qu. Supply melting point value. Item: O=C(c1ccoc1)N1CCC(O)(C#Cc2cccc(Cl)c2)CC1 [Example 1]
Ans. 93 to 94 °C

Qu. Note down melting point recorded for COc1cccc(C#CC2(O)CCN(C(=O)c3ccoc3)CC2)c1 [Example 1.36]
Ans. 83 to 85 °C
